Value source: patent US20250136722A1

TGT: human alpha1 nicotinic acetylcholine (nACh) receptor (Homo sapiens, UniProt P02708+Q07001)
Sequence (P02708 21-457): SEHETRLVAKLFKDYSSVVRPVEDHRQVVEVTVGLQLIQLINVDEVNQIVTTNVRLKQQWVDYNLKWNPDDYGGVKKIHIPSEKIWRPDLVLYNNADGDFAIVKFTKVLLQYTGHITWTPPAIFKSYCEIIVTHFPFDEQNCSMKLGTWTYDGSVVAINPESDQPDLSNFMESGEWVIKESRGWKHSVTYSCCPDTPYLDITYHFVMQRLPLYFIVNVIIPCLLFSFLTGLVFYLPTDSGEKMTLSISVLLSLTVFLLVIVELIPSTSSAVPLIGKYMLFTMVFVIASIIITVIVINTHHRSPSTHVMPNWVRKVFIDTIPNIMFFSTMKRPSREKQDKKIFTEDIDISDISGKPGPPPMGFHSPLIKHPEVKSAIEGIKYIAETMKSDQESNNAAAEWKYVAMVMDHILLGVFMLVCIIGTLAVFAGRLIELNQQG
Sequence (P11230 24-501 partner): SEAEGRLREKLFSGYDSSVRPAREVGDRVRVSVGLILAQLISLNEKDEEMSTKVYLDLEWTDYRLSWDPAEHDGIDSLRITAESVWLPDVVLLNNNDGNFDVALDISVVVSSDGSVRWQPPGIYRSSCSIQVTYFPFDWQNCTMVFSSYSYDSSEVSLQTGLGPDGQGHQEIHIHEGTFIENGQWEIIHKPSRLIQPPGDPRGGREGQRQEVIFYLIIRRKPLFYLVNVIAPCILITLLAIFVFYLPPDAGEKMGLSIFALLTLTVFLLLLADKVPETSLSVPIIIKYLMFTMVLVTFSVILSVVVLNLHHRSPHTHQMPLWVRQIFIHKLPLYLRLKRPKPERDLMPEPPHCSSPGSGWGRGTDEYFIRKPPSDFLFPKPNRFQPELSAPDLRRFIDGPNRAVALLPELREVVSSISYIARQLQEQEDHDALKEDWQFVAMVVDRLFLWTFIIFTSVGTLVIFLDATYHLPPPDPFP
Sequence (Q07001 22-517): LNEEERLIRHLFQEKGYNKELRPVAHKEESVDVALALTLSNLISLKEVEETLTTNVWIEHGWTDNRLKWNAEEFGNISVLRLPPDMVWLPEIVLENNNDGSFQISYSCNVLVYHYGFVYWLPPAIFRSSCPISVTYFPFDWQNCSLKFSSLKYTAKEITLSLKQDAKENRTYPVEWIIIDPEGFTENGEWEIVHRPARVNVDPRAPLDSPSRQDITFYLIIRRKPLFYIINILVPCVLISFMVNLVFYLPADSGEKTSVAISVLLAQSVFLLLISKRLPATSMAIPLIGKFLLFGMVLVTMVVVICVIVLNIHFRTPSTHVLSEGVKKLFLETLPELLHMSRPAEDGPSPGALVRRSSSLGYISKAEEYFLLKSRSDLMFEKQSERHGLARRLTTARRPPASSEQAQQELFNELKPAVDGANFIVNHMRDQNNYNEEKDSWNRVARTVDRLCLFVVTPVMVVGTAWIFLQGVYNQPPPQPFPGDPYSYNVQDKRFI
ASSAY: Nicotinic acetylcholine receptor antagonism assay, IONFlux automated patch clamp (Example 203)
TEST SETTINGS: nAChR antagonism; ACh stimulated; patch clamp
compounds and their reported IC50

Examples with answers:
>  <COMPOUND>
CC(C)N(C)[C@@H]1CCC(N2CC[C@H](Nc3ncnc4ccc(C(F)(F)F)cc34)C2=O)[C@H](NC(=O)CCOCCOCCOCCOCCOCCOCCNC(=O)[C@H]2CC(=O)N(C)[C@@H]2c2cccnc2)C1 (stereo partly shown)

>  <QUANTITY MEASURED>
IC50

>  <RESULT>
> 10 µM

$$$$
>  <COMPOUND>
CC(C)N(C)[C@@H]1CC[C@H](N2CC[C@H](Nc3ncnc4ccc(C(F)(F)F)cc34)C2=O)[C@H](NC(=O)CCOCCN2CCC3(CCC(C(=O)NCCNC(=O)[C@H]4CC(=O)N(C)[C@@H]4c4cccnc4)CC3)CC2)C1

>  <QUANTITY MEASURED>
IC50

>  <RESULT>
6.39 µM

$$$$
>  <COMPOUND>
CC(C)N(C)[C@@H]1CC[C@H](N2CC[C@H](Nc3ncnc4ccc(C(F)(F)F)cc34)C2=O)[C@H](NC(=O)COCCOCCNC(=O)CCOCCOCCNC(=O)[C@H]2CC(=O)N(C)[C@@H]2c2cccnc2)C1

>  <QUANTITY MEASURED>
IC50

>  <RESULT>
> 10 µM

$$$$

Let us move to another entry and its IC50.
Q) Value lookup for IC50; key = CC(C)N(C)[C@@H]1CC[C@H](N2CC[C@H](Nc3ncnc4ccc(C(F)(F)F)cc34)C2=O)[C@H](NC(=O)[C@H]2CC[C@H](C(=O)NCCCOCCCCOCCCNC(=O)[C@H]3CC(=O)N(C)[C@@H]3c3cccnc3)CC2)C1
A) > 100 µM

* * *

TGT: CHOK1 cells engineered to overexpress human CCR2 (Homo sapiens)
Construct: expressed in transfected cells; host or cells: CHOK1 cells
ASSAY: Antibody dependent cellular cytotoxicity (ADCC) reporter assay (Example 199)
Format: cell-based
TEST SETTINGS: with anti-cotinine antibody SEQ ID NO: 11/12; CHOK1-human CCR2 target cells, Jurkat FcγRIIIa NFAT-luciferase reporter cells; 12-18 hours; read-out: ADCC Reporter Assay pEC50 (converted)
Known EC50 of a selection of compounds
Your answer is read as nM, so omit the unit and give the number.

Example entries begin here.
>  <MOLECULE>
CC(C)N(C)[C@@H]1CC[C@H](N2CC[C@H](Nc3ncnc4ccc(C(F)(F)F)cc34)C2=O)[C@H](NC(=O)c2ccc(C3CCN(CCOCCOCCNC(=O)[C@H]4CC(=O)N(C)[C@@H]4c4cccnc4)CC3)cn2)C1

>  <READOUT NUMBER>
10

$$$$
>  <MOLECULE>
CC(C)N(C)[C@@H]1CC[C@H](N2CC[C@H](Nc3ncnc4ccc(C(F)(F)F)cc34)C2=O)[C@H](NC(=O)CCOCCOCCNC(=O)[C@@H]2CCCN2CCOCCNC(=O)[C@H]2CC(=O)N(C)[C@@H]2c2cccnc2)C1

>  <READOUT NUMBER>
3.98

$$$$
>  <MOLECULE>
CC(C)N(C)[C@@H]1CC[C@H](N2CC[C@H](Nc3ncnc4ccc(C(F)(F)F)cc34)C2=O)[C@H](NC(=O)[C@H]2CC[C@H](C(=O)NCCCOCCCCOCCCNC(=O)[C@H]3CC(=O)N(C)[C@@H]3c3cccnc3)CC2)C1

>  <READOUT NUMBER>
0.275

$$$$

Moving on to another compound below.
Q) So what's the measured EC50 for this one? CC(C)N(C)[C@@H]1CC[C@H](N2CC[C@H](Nc3ncnc4ccc(C(F)(F)F)cc34)C2=O)[C@H](NC(=O)CCOCCNC(=O)COCCNC(=O)CCOCCNC(=O)[C@H]2CC(=O)N(C)[C@@H]2c2cccnc2)C1
A) 0.631
